Listed here: items and their measured cell viability.
System: P12-Ichikawa
assay-info: cell viability relative to DMSO control; higher = less cytotoxic
test-context: HPLM + 10% dialyzed FBS; 48 h; 0.0211 µM
observable: cell viability (%)

>>> print(df.to_string())
                                   compound  target_or_test_system  assay_result
0       C=CCc1ccc(O)c(-c2ccc(O)c(CC=C)c2)c1           P12-Ichikawa           113
1  N#C/C(C(=O)c1ccc(Cl)cc1Cl)=C1/NC(=O)c2ccc(Cl)cc2N1           P12-Ichikawa           115
2         O=C(/C=C/c1ccc(O)cc1)c1ccc(O)cc1O           P12-Ichikawa           109
3  CN(C)C1=C(Br)C=C(C=C1)C\2NC3=C(\C4=C2C(=O)CC(C)(C)C4)C5=CC=CC=C5C=C3 (stereo unspecified)           P12-Ichikawa           116
4        CCN(c1ccccc1)c1cc(NC)[n+](C)c(C)n1           P12-Ichikawa           106
5           C[C@](N)(Cc1ccc(O)c(O)c1)C(=O)O           P12-Ichikawa          96.8

###

Listed here: items and their measured cell viability.
Test system: P12-Ichikawa
assay-info: cell viability relative to DMSO control; higher = less cytotoxic
test-context: RPMI 5 mM glucose + 10% dialyzed FBS; 48 h; 0.0211 µM

compound	cell viability (%)
CC(NCCc1ccc(O)cc1)C(O)c1ccc(O)cc1 (configuration not stated)	109
OC(CN1CCN(c2cccc(Cl)c2)CC1)C(c1ccccc1)c1ccccc1 (configuration not stated)	112
CC(C)Oc1ccc(C(=O)N[C@H](CNC(=O)CN(C)C)Cc2ccc(-c3cn4cccc([C@H](C)O)c4n3)cc2)cc1Cl	110
CC(C)C[C@H](NC(=O)[C@@H](O)[C@H](N)Cc1ccccc1)C(=O)O	130
CN(C)CCN1C(=O)c2cccc3cc(N)cc(c23)C1=O	102
NC/1=N/C(=O)N(/C=N1)[C@@H]2O[C@H](CO)[C@@H](O)[C@H]2O	116
CC[C@]1(O)C[C@@H]2CN(CCc3c([nH]c4ccccc34)[C@@](C(=O)OC)(c3cc4c(cc3OC)N(C)[C@H]3[C@@](O)(C(N)=O)[C@H](O)[C@]5(CC)C=CCN6CC[C@]43[C@@H]65)C2)C1	104

###

Listed here: items and their measured cell viability.
Test system: NOMO1
assay-info: cell viability relative to DMSO control; higher = less cytotoxic
test-context: HPLM + 10% dialyzed FBS; 48 h; 0.19 µM
observable: cell viability (%)

                                item_smiles  assay_result
0  COC1=CC=C2/C3=N/CCN3\C(=N/C2=C1OC)NC(=O)C4=CC=CN=C4           126
1  N[S+](=O)([O-])OC[C@@H]1C[C@@H](n2ccc3c(N[C@H]4CCc5ccccc54)ncnc32)C[C@@H]1O           107
2  C[S+](=O)([O-])c1ccc(Oc2cc(F)cc(C#N)c2)c2c1[C@H](O)C(F)(F)C2           119
3     CN(C)CCN1C(=O)c2cccc3cc(N)cc(c23)C1=O           147

###

Listed here: items and their measured cell viability.
Tested on: NOMO1
assay-info: cell viability relative to DMSO control; higher = less cytotoxic
test-context: RPMI 5 mM glucose + 10% FBS; 48 h; 0.569 µM
observable: cell viability (%)

compound	observable	measurement-unit	assay-result
Cc1nc(Nc2n[nH]c3c2CN(C(=O)N[C@H](CN(C)C)c2ccccc2)C3(C)C)c2sccc2n1	cell viability	%	53.2
CO/N=C(/C(=O)N[C@@H]1C(=O)N2C(C(=O)O)=C(CSC(=O)c3ccco3)CS[C@H]12)c1csc(N)n1	cell viability	%	109
OC(CN1CCN(c2cccc(Cl)c2)CC1)C(c1ccccc1)c1ccccc1 (centres undefined)	cell viability	%	108
CC[C@]1(O)C[C@@H]2CN(CCc3c([nH]c4ccccc34)[C@@](C(=O)OC)(c3cc4c(cc3OC)N(C)[C@H]3[C@@](O)(C(N)=O)[C@H](O)[C@]5(CC)C=CCN6CC[C@]43[C@@H]65)C2)C1	cell viability	%	21.1
COc1cccc2c1[C@]13CCN(CC4CC4)[C@H](C2)[C@]1(OC)CCC(=O)C3	cell viability	%	132
CO/N=C(\C(=O)N[C@@H]1C(=O)N2C(C(=O)OCOC(=O)C(C)(C)C)=C(/C=C\c3scnc3C)CS[C@H]12)c1csc(N)n1	cell viability	%	99.4
CNC(=O)[C@H](CC/1=C/N=C\2/C=C\C\C=C12)NC(=O)[C@H](CC(C)C)CC(=O)NO	cell viability	%	97
COC1=CC=C(C=C1O)C/2=C/C(=O)C3=C(O2)C=C(O[C@@H]4O[C@H](CO[C@@H]5O[C@@H](C)[C@H](O)[C@@H](O)[C@H]5O)[C@@H](O)[C@H](O)[C@H]4O)C=C3O	cell viability	%	126
Cc1c[nH]c(-c2cnc(NCCNc3ccc(C#N)cn3)nc2-c2ccc(Cl)cc2Cl)n1	cell viability	%	77.5
COc1cc(/C=C/C(=O)O)ccc1O	cell viability	%	92.2
N#C[C@H](O[C@@H]1O[C@H](CO[C@@H]2O[C@H](CO)[C@@H](O)[C@H](O)[C@H]2O)[C@@H](O)[C@H](O)[C@H]1O)c1ccccc1	cell viability	%	96.3
CC(NCCc1ccc(O)cc1)C(O)c1ccc(O)cc1 (centres undefined)	cell viability	%	101
C1CCN2C[C@H]3C[C@H](\C=C/4CCCN[C@@H]34)[C@H]2C1	cell viability	%	104
O=C(Nc1cccnn1)N1CCC(=Cc2cccc(Oc3ccc(C(F)(F)F)cn3)c2)CC1	cell viability	%	91.6

###

Listed here: items and their measured AUC of viability dose-response curve.
System: P12-Ichikawa
assay-info: AUC of viability dose-response curve (% viability x log10 dose units); higher = less sensitive
test-context: RPMI 5 mM glucose + 10% FBS; 48 h
observable: AUC of viability dose-response curve

                                item_smiles  assay_result
0  CCOC(=O)\C1=C\[C@@H](OC(CC)CC)[C@H](NC(C)=O)[C@@H](N)C1           460
1  OCCC#Cc1nc(-c2ccc(F)cc2)c(-c2ccncc2)n1CCCc1ccccc1           467
2     CN(C)CCN1C(=O)c2cccc3cc(N)cc(c23)C1=O           418

###

System: NOMO1
assay-info: cell viability relative to DMSO control; higher = less cytotoxic
test-context: HPLM + 10% dialyzed FBS; 48 h; 0.0211 µM
observable: cell viability (%)

                                   molecule  target_or_test_system  assay_result
0  COc1cccc2c1CCCC2CCCN1CCN(C2CCCCC2)CC1 (stereo not given)                  NOMO1           106
1  O=C1NC(=O)/C(=C/c2ccc(-c3ccc(F)cc3O)o2)S1                  NOMO1           130
2  OCCn1cc(-c2cnc3nnn(Cc4ccc5ncccc5c4)c3n2)cn1                  NOMO1           110
3  CC1(C)C(N(O)C(=O)Nc2ccc(Cl)cc2)N(c2ccc(Cl)cc2)C(=O)N1CC(=O)N/N=C/C=C/c1ccc([N+](=O)[O-])o1 (stereo not given)                  NOMO1           124
4  CC(C)(O)/C=C\C(=O)[C@](C)(O)[C@H]1[C@H](O)C[C@]2(C)[C@@H]3CC=C4[C@@H](C=C(O)C(=O)C4(C)C)[C@]3(C)C(=O)C[C@@]12C                  NOMO1           116

###

Tested on: SEM cells
assay-info: cell viability relative to DMSO control; higher = less cytotoxic
test-context: RPMI 5 mM glucose + 10% FBS; 48 h; 0.19 µM
Listed here: items and their measured cell viability.
observable: cell viability (%)

>>> df
                                    compound  assay_result
 0  OC[C@H]1O[C@@H](Oc2cc(O)cc(/C=C/c3ccc(O)cc3)c2)[C@H](O)[C@@H](O)[C@@H]1O           110
 1     CCNC(=O)Nc1ccc2ncc(Nc3ccc(C)cc3)nc2n1          98.3
 2  CNC(=O)CN1CCC(Oc2cc3c(Nc4cccc(Cl)c4F)ncnc3cc2OC)CC1           130
 3         O=C(/C=C/c1ccc(O)cc1)c1ccc(O)cc1O           133
 4  CCOc1cc(CC(=O)N[C@@H](CC(C)C)c2ccccc2N2CCCCC2)ccc1C(=O)O           108
 5  CNC(=O)N1\N=C(\C2=CC=C(N)C=C2)C3=CC4=C(OCO4)C=C3CC1C (stereo unspecified)           134
 6  COc1cc(C)c(Sc2cnc(NC(=O)c3ccc(CNC(C)C(C)C)cc3)s2)cc1C(=O)N1CCN(C(C)=O)CC1 (stereo unspecified)           112
 7  CC(NCCc1ccc(O)cc1)C(O)c1ccc(O)cc1 (stereo unspecified)           103
 8     CN(C)CCN1C(=O)c2cccc3cc(N)cc(c23)C1=O          74.1
 9  COc1ccccc1N1CCN(CCN(C(=O)C2CCCCC2)c2ccccn2)CC1           135
10  C[C@@]1(C(=O)Nc2ccc(F)nc2)CCCN1c1nc(Nc2cc(C3CC3)[nH]n2)c2cccn2n1          77.2
11  CN1CCN(C(=O)O[C@H]2c3nccnc3C(=O)N2c2ccc(Cl)cn2)CC1          96.6
12  COc1cccc2c1[C@]13CCN(CC4CC4)[C@H](C2)[C@]1(OC)CCC(=O)C3           107
13  CC/1=C(/N2[C@H](SC1)[C@H](NC(=O)C(N)C3=CC=CC=C3)C2=O)C(O)=O (stereo partly specified)           138
14          Cn1cc(C[C@@H](N)C(=O)O)c2ccccc21          96.4
15  CNC(=O)[C@H](CC/1=C/N=C\2/C=C\C\C=C12)NC(=O)[C@H](CC(C)C)CC(=O)NO           118
16  NC(=O)c1ncn([C@@H]2O[C@H](CO)[C@@H](O)[C@H]2O)c1O           131
17  CC(C)OC1=CC=C2C(=C1)O\C=C(/C2=O)C3=CC=CC=C3           130
18  O.O.CCN1CCN(C(=O)N[C@H](C(=O)N[C@H]2[C@@H]3SC\C(=C(/N3C2=O)C(O)=O)CSC4=NN=N[N]4C)C5=CC=C(O)C=C5)C(=O)C1=O           104
19                                  NC(=O)NO            93
20  COc1cc(N2CCC(N(C)C)CC2)ccc1Nc1ncc(Cl)c(Nc2ccccc2P(C)(C)=O)n1          95.4

These entries and their values trace back to the supplement of paper PMC11451515.
